# key: entry, value: pKi
# SYSTEM_TESTED: Carbonic anhydrase 2 (Bos taurus, UniProt P00921)
# Sequence (P00921 whole entry): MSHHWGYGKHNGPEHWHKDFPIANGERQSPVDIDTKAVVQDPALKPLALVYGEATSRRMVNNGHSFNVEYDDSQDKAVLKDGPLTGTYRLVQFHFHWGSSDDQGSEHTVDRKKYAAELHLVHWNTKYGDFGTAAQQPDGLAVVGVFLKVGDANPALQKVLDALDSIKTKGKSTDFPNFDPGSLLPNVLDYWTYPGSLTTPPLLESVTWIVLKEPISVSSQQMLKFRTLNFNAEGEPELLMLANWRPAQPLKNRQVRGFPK
pKi: −log10 of the molar value.
READOUT_KIND: pKi

COMPOUND	RESULT
COC(=O)[C@]12CCC(C)(C)C[C@H]1C1=CC[C@@H]3[C@@]4(C)CC[C@H](O)C(C)(C)[C@@H]4CC[C@@]3(C)[C@]1(C)CC2 [METHYL OLEANOLATE]	< 5.00
C=C(C)[C@@H]1CC[C@]2(C(=O)OC)CC[C@]3(C)[C@H](CC[C@@H]4[C@@]5(C)CC[C@H](O)C(C)(C)[C@@H]5CC[C@]43C)[C@@H]12 [METHYL BETULINATE]	< 4.30
COC(=O)[C@]12CCC(C)(C)C[C@H]1C1=CC(=O)[C@@H]3[C@@]4(C)CC[C@H](O)C(C)(C)[C@@H]4CC[C@@]3(C)[C@]1(C)CC2	< 4.30
COC(=O)[C@]12CC[C@@H](C(C)=O)[C@@H]1[C@H]1CC[C@@H]3[C@@]4(C)CC[C@H](OS(N)(=O)=O)C(C)(C)[C@@H]4CC[C@@]3(C)[C@]1(C)CC2	5.76
C=C(C)[C@@H]1CC[C@]2(C(=O)OC)CC[C@]3(C)[C@H](CC[C@@H]4[C@@]5(C)CC[C@H](OS(N)(=O)=O)C(C)(C)[C@@H]5CC[C@]43C)[C@@H]12	5.67
COC(=O)[C@]12CCC(C)(C)C[C@H]1C1=CC[C@@H]3[C@@]4(C)C[C@@H](OS(N)(=O)=O)[C@H](O)C(C)(C)[C@@H]4CC[C@@]3(C)[C@]1(C)CC2	< 4.70
COC(=O)[C@]12CC[C@@H](C)[C@H](C)[C@H]1C1=CC[C@@H]3[C@@]4(C)CC[C@H](O)C(C)(C)[C@@H]4CC[C@@]3(C)[C@]1(C)CC2 [METHYL URSOLATE]	< 5.00
COC(=O)[C@@]1(C)CC[C@]2(C)CC[C@]3(C)C(=CC[C@@H]4[C@@]5(C)CC[C@H](O)C(C)(C)[C@@H]5CC[C@]43C)[C@@H]2C1	< 5.00
COC(=O)[C@@]1(C)CC[C@]2(C)CC[C@]3(C)C(=CC(=O)[C@@H]4[C@@]5(C)CC[C@H](O)C(C)(C)[C@@H]5CC[C@]43C)[C@@H]2C1	< 5.00
COC(=O)[C@]12CC[C@@H](C)[C@H](C)[C@H]1C1=CC[C@@H]3[C@@]4(C)CC[C@H](OS(N)(=O)=O)C(C)(C)[C@@H]4CC[C@@]3(C)[C@]1(C)CC2	5.95
COC(=O)[C@]12CCC(C)(C)C[C@H]1C1=CC[C@@H]3[C@@]4(C)C[C@@H](O)[C@H](OS(N)(=O)=O)C(C)(C)[C@@H]4CC[C@@]3(C)[C@]1(C)CC2	5.85

====

The reader will find Ki measurements below, all made with Carbonic anhydrase 2 (Bos taurus, UniProt P00921).
READOUT_KIND: Ki

>>> df
                           smiles_structure                             system_tested  readout_kind   result
0  COC(=O)[C@]12CC[C@@H](C(C)=O)[C@@H]1[C@H]1CC[C@@H]3[C@@]4(C)CC[C@H](O)C(C)(C)[C@@H]4CC[C@@]3(C)[C@]1(C)CC2  Carbonic anhydrase 2 (Bos taurus, UniProt P00921)            Ki   > 5 µM
1  COC(=O)[C@]12CC[C@@H](C)[C@H](C)[C@H]1C1=CC(=O)[C@@H]3[C@@]4(C)CC[C@H](O)C(C)(C)[C@@H]4CC[C@@]3(C)[C@]1(C)CC2  Carbonic anhydrase 2 (Bos taurus, UniProt P00921)            Ki  > 50 µM
2  COC(=O)[C@]12CC[C@@H](C)[C@H](C)[C@H]1C1=CC(=O)[C@@H]3[C@@]4(C)CC[C@H](OS(N)(=O)=O)C(C)(C)[C@@H]4CC[C@@]3(C)[C@]1(C)CC2  Carbonic anhydrase 2 (Bos taurus, UniProt P00921)            Ki  > 15 µM

Where do the numbers come from? From ChEMBL document CHEMBL3352703.
